Data provenance is patent US9340577B2.

assay target: DRB1*0405 (Homo sapiens, UniProt P01903+P01911, A100R/A169T/D86S/F76Y/I96L/K127E/L162R/M171V/N62H/P40V/Q125Y/R42H/S133A/S149N/S66Y/V115G/V209L/W38E)
measurement description: biochemical
Type: binding
No end group written: not given here.
reported endpoint: pIC50
# pIC50 is unitless: minus log10 of the molar concentration; print number only

>>> meas_value("QMFLGTVKIPPTVQI [Peptide 89.0188]")
6.21

Data request: Return reported pIC50; argument: TLAVSKNKALQAIEL [Peptide 89.0150]
Data returned: 5.78

Data request: Return reported pIC50; argument: MAIFGVNPTVAEGFK [Peptide 89.0081]
Data returned: 7.44

Data request: Return reported pIC50; argument: LMQLKCPPLLITSNI [Peptide 89.0057]
Data returned: 5.83

Data request: Return reported pIC50; argument: RLTVAKLMSNLLSIP [Peptide 89.0065]
Data returned: 7.37

Data request: Return reported pIC50; argument: EDLRTLQQLFLSTLS [Peptide 1543.21]
Data returned: 6.24

Data request: Return reported pIC50; argument: VEFMSFLTALKRFLQ [Peptide 89.0015]
Data returned: 6.34

Data request: Return reported pIC50; argument: PEWIQRLTIIQHGID [Peptide 89.0031]
Data returned: 6.88

Data request: Return reported pIC50; argument: SDEISFAGIVTKLPT [Peptide 1601.45]
Data returned: 5.63

Data request: Return reported pIC50; argument: RVCLLFYSKVRKYRY [Peptide 1543.54]
Data returned: 6.63
